run-description: Mouse PO PK
experimental-setup: in vivo, 10 mg/kg, PO 10 mpk
Cmax overview
The reply should be a number in ng/mL, with the unit left off.

Sample records with Cmax:
# Cmax of C=CC(=O)N1CCCN(C(=O)c2cc(Sc3cnc(NC(=O)C4CC4)s3)c(C)cc2OC)C[C@H]1C [Compound 44] = 368

# Cmax of C=CC(=O)N1CCN(C(=O)c2cc(Sc3cnc(NC(=O)C4CC4)s3)c(C)cc2OC)C[C@H]1C [Compound 21] = 292

# Cmax of C=CC(=O)N1CCN(C(=O)c2cc(Sc3cnc(NC(=O)c4ccsc4)s3)c(C)cc2OC)CC1 [Compound 90] = 527

With those in mind, consider the next compound.
# Cmax of C=CC(=O)N1CCN(C(=O)c2cc(Sc3cnc(NC(=O)C4CC4)s3)c(C)cc2OC)CC1 [Compound 1] = 613

---

target-of-assay: BTK (Homo sapiens (Human), UniProt Q06187)
Sequence (Q06187 whole entry, species assumed): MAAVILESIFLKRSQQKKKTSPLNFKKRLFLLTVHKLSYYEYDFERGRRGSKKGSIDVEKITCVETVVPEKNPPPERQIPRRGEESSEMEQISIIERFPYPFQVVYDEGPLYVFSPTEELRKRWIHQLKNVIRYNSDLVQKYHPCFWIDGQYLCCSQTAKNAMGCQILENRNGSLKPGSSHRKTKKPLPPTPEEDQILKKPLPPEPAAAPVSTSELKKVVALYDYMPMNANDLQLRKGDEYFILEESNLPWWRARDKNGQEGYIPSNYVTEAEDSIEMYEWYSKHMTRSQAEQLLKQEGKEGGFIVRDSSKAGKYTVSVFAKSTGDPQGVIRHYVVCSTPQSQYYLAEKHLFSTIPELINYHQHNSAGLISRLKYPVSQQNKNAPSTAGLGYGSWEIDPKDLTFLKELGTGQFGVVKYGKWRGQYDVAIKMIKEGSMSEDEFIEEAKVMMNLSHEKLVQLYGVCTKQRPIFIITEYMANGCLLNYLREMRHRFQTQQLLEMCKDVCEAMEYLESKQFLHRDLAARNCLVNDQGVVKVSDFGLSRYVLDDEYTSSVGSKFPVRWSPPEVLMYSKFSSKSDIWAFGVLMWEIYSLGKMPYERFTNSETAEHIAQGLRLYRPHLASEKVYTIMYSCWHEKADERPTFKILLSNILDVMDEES
run-description: IC50 against BTK
Assay type: biochemical
IC50 overview

# IC50 of `C=CC(=O)N1CCCN(C(=O)c2cc(Sc3cnc(NC(=O)c4cccc(CN(C)C)c4)s3)c(C)cc2OC)C[C@H]1C` = 1000 to 10000 nM

# IC50 of `C=CC(=O)N1CCN(C(=O)c2cc(Sc3cnc(NC(=O)C4CC4)s3)c(C)cc2C(F)(F)F)C[C@H]1C` = ≥ 10000 nM

# IC50 of `C=CC(=O)N1CCN(C(=O)c2cc(Sc3cnc(NC(=O)C4CC4)s3)c(Cl)cc2C)CC1` = 100 to 1000 nM

Continuing:
# IC50 of `C=CC(=O)N1CCCN(C(=O)c2cc(Sc3cnc(NC(=O)C4CC4)s3)c(C)cc2Cl)C[C@H]1C` = ≥ 10000 nM

# IC50 of `C=CC(=O)N1CCN(C(=O)c2cc(Sc3cnc(NC(=O)C4CC4)s3)c(C)cc2OC)[C@@H](C)C1` = 10 to 100 nM

# IC50 of `C=CC(=O)N1CCN(C(=O)c2cc(Sc3cnc(Nc4ccccn4)s3)c(Cl)cc2C)CC1` = 10 to 100 nM

# IC50 of `C=CC(=O)N1CCCN(C(=O)c2cc(Sc3cnc(NC(=O)CN(C)C)s3)c(C)cc2OC)CC1` = ≥ 10000 nM

---

run-description: Rat PO PK
experimental-setup: in vivo, 6 mg/kg, PO 6 mpk
Label MET when Cmax >= 30 ng/mL; otherwise NOT MET.

q: Determine whether this compound has Cmax no lower than 30 ng/mL: `C=CC(=O)N1CCCN(C(=O)c2cc(Sc3cnc(NC(=O)c4cccc(CN(C)C)c4)s3)c(C)cc2OC)CC1`
a: NOT MET

q: Determine whether this compound has Cmax no lower than 30 ng/mL: `C=CC(=O)N1CCN(C(=O)c2cc(Sc3cnc(NC(=O)C4CC4)s3)c(C)cc2OC)CC1`
a: MET

q: Determine whether this compound has Cmax no lower than 30 ng/mL: `C=CC(=O)N1CCCN(C(=O)c2cc(Sc3cnc(NC(=O)C4CC4)s3)c(C)cc2OC)C[C@H]1C`
a: MET

Continuing:
q: Determine whether this compound has Cmax no lower than 30 ng/mL: `C=CC(=O)N1CCCN(C(=O)c2cc(Sc3cnc(NC(=O)c4ccc(F)c(CN(C)C)c4)s3)c(C)cc2OC)CC1`
a: NOT MET

q: Determine whether this compound has Cmax no lower than 30 ng/mL: `C=CC(=O)N1CCN(C(=O)c2cc(Sc3cnc(NC(=O)C4CC4)s3)c(C)cc2OC)C[C@H]1C`
a: MET
